measurementDescription: in vivo
protocolConditions: male, beagle, dog, in vivo, po, 10 mg/kg, plasma concentration, single PO 10 mg/kg; 119 s; individual animal
endpoint: concentration at 0.033 h (ng/mL)
Please state the figure in ng/mL; there is no need to write the unit.

Consider CN1CCc2cccc3c2[C@@H]1Cc1ccc(O)c(O)c1-3 . Its measured concentration at 0.033 h is 2.92

###

measurementDescription: in vivo
protocolConditions: male, SD, rat, sc, 0.88 mg/kg, Cmax
endpoint: Cmax (ng/mL)
Please state the figure in ng/mL; there is no need to write the unit.

Consider CN1CCc2cccc3c2[C@@H]1Cc1ccc(O)c(O)c1-3 . Its measured Cmax is 141

###

measurementDescription: in vivo
protocolConditions: male, C57BL/6J, mouse, po, 25 mg/kg, Plasma concentration, male C57BL/6J mice, repeated oral dose 25 mg/kg, […] post last day (Day 4) dose, G1
endpoint: concentration at […] (ng/mL)
Please state the figure in ng/mL; there is no need to write the unit.

Consider CN1CCc2cccc3c2[C@@H]1Cc1ccc(O)c(O)c1-3 . Its measured concentration at […] is 1460

###

measurementDescription: Plasma and CSF pharmacokinetic study, single sublingual, oral or subcutaneous dose, male Beagle dogs
Type: in vivo
protocolConditions: male, beagle, dog, in vivo, sc, 1 mg/kg, single SC 1 mg/kg; 4.00 h; individual animal; read-out: CSF concentration
endpoint: concentration at 4 h (ng/mL)
Please state the figure in ng/mL; there is no need to write the unit.

Consider CN1CCc2cccc3c2[C@@H]1Cc1ccc(O)c(O)c1-3 . Its measured concentration at 4 h is 10.2

###

measurementDescription: in vivo
protocolConditions: male, C57BL/6J, mouse, po, 25 mg/kg, Brain concentration, male C57BL/6J mice, repeated oral dose 25 mg/kg, […] post last day (Day 4) dose, G3
endpoint: concentration at […] (ng/g)
Please state the figure in ng/g; there is no need to write the unit.

Consider CN1CCc2cccc3c2[C@@H]1Cc1ccc(O)c(O)c1-3 . Its measured concentration at […] is 1080

###

measurementDescription: Plasma and CSF pharmacokinetic study, single sublingual, oral or subcutaneous dose, male Beagle dogs
Type: in vivo
protocolConditions: male, beagle, dog, in vivo, sc, 1 mg/kg, single SC 1 mg/kg; 1.00 h; individual animal; read-out: plasma concentration
endpoint: concentration at 1 h (µg/mL)
Please state the figure in µg/mL; there is no need to write the unit.

Consider CN1CCc2cccc3c2[C@@H]1Cc1ccc(O)c(O)c1-3 . Its measured concentration at 1 h is 0.0119

###

measurementDescription: in vivo
protocolConditions: male, SD, rat, iv, 0.88 mg/kg, plasma concentration, Mean
endpoint: concentration at 1 h (ng/mL)
Please state the figure in ng/mL; there is no need to write the unit.

Consider CN1CCc2cccc3c2[C@@H]1Cc1ccc(O)c(O)c1-3 . Its measured concentration at 1 h is 6.37

###

measurementDescription: in vivo
protocolConditions: male, C57BL/6J, mouse, po, 25 mg/kg
endpoint: Tmax (min)
Please state the figure in min; there is no need to write the unit.

Consider CN1CCc2cccc3c2[C@@H]1Cc1ccc(O)c(O)c1-3 . Its measured Tmax is 6

###

measurementDescription: in vivo
protocolConditions: male, C57BL/6J, mouse, po, 25 mg/kg, CSF concentration, Mean
endpoint: concentration at 0.5 h (ng/mL)
Please state the figure in ng/mL; there is no need to write the unit.

Consider CN1CCc2cccc3c2[C@@H]1Cc1ccc(O)c(O)c1-3 . Its measured concentration at 0.5 h is 7.7

###

measurementDescription: Plasma and CSF pharmacokinetic study, single sublingual, oral or subcutaneous dose, male Beagle dogs
Type: in vivo
protocolConditions: male, beagle, dog, in vivo, 5 mg/kg, male Beagle dogs (fasted), single SL 5 mg/kg, CSF, individual dogs
endpoint: AUC(0-t) (ng·h/mL)
Please state the figure in ng·h/mL; there is no need to write the unit.

Consider CN1CCc2cccc3c2[C@@H]1Cc1ccc(O)c(O)c1-3 . Its measured AUC(0-t) is 122

###

measurementDescription: Plasma and CSF pharmacokinetic study, single sublingual, oral or subcutaneous dose, male Beagle dogs
Assay type: in vivo
protocolConditions: male, beagle, dog, in vivo, po, 10 mg/kg, CSF concentration
endpoint: concentration at 0.5 h (ng/mL)
Please state the figure in ng/mL; there is no need to write the unit.

Consider CN1CCc2cccc3c2[C@@H]1Cc1ccc(O)c(O)c1-3 . Its measured concentration at 0.5 h is 48.5

###

measurementDescription: Plasma and CSF pharmacokinetic study, single sublingual, oral or subcutaneous dose, male Beagle dogs
Assay type: in vivo
protocolConditions: dog, in vivo; male Beagle dogs (fasted), single SL 5 mg/kg, CSF, mean
endpoint: MRT inf (h)
Please state the figure in h; there is no need to write the unit.

Consider CN1CCc2cccc3c2[C@@H]1Cc1ccc(O)c(O)c1-3 . Its measured MRT inf is 3.18

###

measurementDescription: in vivo
protocolConditions: male, C57BL/6J, mouse, CSF concentration
endpoint: concentration at 0.5 h (ng/mL)
Please state the figure in ng/mL; there is no need to write the unit.

Consider CN1CCc2cccc3c2[C@@H]1Cc1ccc(O)c(O)c1-3 . Its measured concentration at 0.5 h is 9.59

###

measurementDescription: Plasma and CSF pharmacokinetic study, single sublingual, oral or subcutaneous dose, male Beagle dogs
Assay type: in vivo
protocolConditions: male, beagle, dog, in vivo, sc, 1 mg/kg, plasma concentration
Procedure: Animals were fed twice daily. […] Food was withheld until 4-hour post-dose. All blood samples were collected from a peripheral vessel. For CSF collection, a polypropylene tube was first weighted to accuracy of 0.1 mg (weight #1). CSF was collected in the tube and weighted again (weight #2). Total CSF weight was calculated by subtracting weight #1 from weight #2. Samples were kept on ice and protected from sunlight. […]
endpoint: concentration at 1 h (µg/mL)
Please state the figure in µg/mL; there is no need to write the unit.

Consider CN1CCc2cccc3c2[C@@H]1Cc1ccc(O)c(O)c1-3 . Its measured concentration at 1 h is 0.0279

###

measurementDescription: in vivo
protocolConditions: male, SD, rat, iv, 0.88 mg/kg, plasma concentration
endpoint: concentration at 2 min (ng/mL)
Please state the figure in ng/mL; there is no need to write the unit.

CN1CCc2cccc3c2[C@H]1Cc1ccc(O)c(O)c1-3 3.85

Next:
Consider CN1CCc2cccc3c2[C@@H]1Cc1ccc(O)c(O)c1-3 . Its measured concentration at 2 min is 353

###

measurementDescription: Plasma and CSF pharmacokinetic study, single sublingual, oral or subcutaneous dose, male Beagle dogs
Assay type: in vivo
protocolConditions: dog, in vivo; male Beagle dogs (fasted), single PO 10 mg/kg, plasma, individual dogs
endpoint: MRT inf (h)
Please state the figure in h; there is no need to write the unit.

Consider CN1CCc2cccc3c2[C@@H]1Cc1ccc(O)c(O)c1-3 . Its measured MRT inf is 8.44

###

measurementDescription: Plasma and CSF pharmacokinetic study, single sublingual, oral or subcutaneous dose, male Beagle dogs
Format: in vivo
protocolConditions: male, beagle, dog, in vivo, 5 mg/kg, CSF concentration
endpoint: concentration at […]

Consider CN1CCc2cccc3c2[C@@H]1Cc1ccc(O)c(O)c1-3 . Its measured concentration at […] is 289 ng/mL

###

measurementDescription: in vivo
protocolConditions: male, beagle, dog, in vivo, po, 10 mg/kg, Cmax, plasma; single PO 10 mg/kg; individual animal
endpoint: Cmax (ng/mL)
Please state the figure in ng/mL; there is no need to write the unit.

Consider CN1CCc2cccc3c2[C@@H]1Cc1ccc(O)c(O)c1-3 . Its measured Cmax is 265

###

measurementDescription: in vivo
protocolConditions: male, C57BL/6J, mouse, po, 25 mg/kg, Plasma concentration
endpoint: concentration at 8 h (ng/mL)
Please state the figure in ng/mL; there is no need to write the unit.

Consider CN1CCc2cccc3c2[C@@H]1Cc1ccc(O)c(O)c1-3 . Its measured concentration at 8 h is 0.765

###

measurementDescription: Plasma and CSF pharmacokinetic study, single sublingual, oral or subcutaneous dose, male Beagle dogs
Type: in vivo
protocolConditions: male, beagle, dog, in vivo, sc, 1 mg/kg, AUClast ratio of CSF to total plasma
endpoint: Kp
Returns: the value as a bare number; no unit string appended.

Consider CN1CCc2cccc3c2[C@@H]1Cc1ccc(O)c(O)c1-3 . Its measured Kp is 0.964

###

measurementDescription: in vivo
protocolConditions: male, SD, rat, iv, 0.88 mg/kg, Cl
endpoint: clearance (mL/min/kg)
Please state the figure in mL/min/kg; there is no need to write the unit.

Consider CN1CCc2cccc3c2[C@@H]1Cc1ccc(O)c(O)c1-3 . Its measured clearance is 169

###

measurementDescription: in vivo
protocolConditions: male, C57BL/6J, mouse, po, 25 mg/kg, Plasma concentration, male C57BL/6J mice, repeated oral dose 25 mg/kg, 8 h post last day (Day 4) dose, G3
endpoint: concentration at 8 h (ng/mL)
Please state the figure in ng/mL; there is no need to write the unit.

Consider CN1CCc2cccc3c2[C@@H]1Cc1ccc(O)c(O)c1-3 . Its measured concentration at 8 h is 1.24
